Catalogue of IC50 readings, one per entry.
# System: MCF7
# TEST_DESCRIPTION: Antiproliferative activity against human MCF7 cells after 72 hrs by MTS/PMS assay
# Assay type: functional, cell-based
# CONDITIONS_USED: MCF7, 72 h
REPORTED_METRIC: IC50

| CHEMICAL_SMILES | ASSAYED_SYSTEM | MEASUREMENT |
| --- | --- | --- |
| COc1cccc(-c2cc(C(=O)Nc3cccc(-c4cccc(OC5CCN(C)CC5)c4)c3)ccc2OC)c1 | MCF7 | 2 µM |
| COc1cccc(-c2cc(C(=O)Nc3ccc(-c4ccc(OC5CCN(C)CC5)cc4C)cc3)ccc2OC)c1 | MCF7 | 1.21 µM |
| CN1CCC(Oc2ccc(-c3ccc(NC(=O)c4cc5ccccc5s4)cc3)cc2)CC1 | MCF7 | 2.01 µM |
| COc1ccc(C(=O)Nc2ccc(-c3ccc(OC4CCN(C)CC4)cc3)cc2)cc1-c1ccc(OC(C)=O)cc1 | MCF7 | 0.64 µM |
| CC(C)=CCc1cc(NC(=O)Nc2cc3ccc(OC4CCN(C)CC4)c(C)c3oc2=O)ccc1O | MCF7 | 0.37 µM |
| COc1cccc(-c2cc(C(=O)Nc3ccc(-c4ccc(OC5CCN(C)CC5)cc4)nc3)ccc2OC)c1 | MCF7 | 1.02 µM |
| Cc1ccc(C(=O)Nc2ccc(-c3ccc(OC4CCN(C)CC4)cc3)cc2)cc1Cl | MCF7 | 2.28 µM |
| COc1ccc(C(=O)Nc2ccc(-c3ccc(OC4CCN(C)CC4)cc3)cc2)cc1-c1ccccc1 | MCF7 | 0.84 µM |
| CC(=O)Oc1ccc(C(=O)Nc2cccc(-c3ccc(OC4CCN(C)CC4)cc3)c2)cc1CC=C(C)C | MCF7 | 2.71 µM |
| COc1cccc(-c2cc(C(=O)Nc3ccc(-c4ccc(OC5CCN(C)CC5)nc4)cc3)ccc2OC)c1 | MCF7 | 1.56 µM |
| CN1CCC(Oc2ccc(-c3ccc(NC(=O)c4cc(Cl)cc(Cl)c4)cc3)cc2)CC1 | MCF7 | 1.68 µM |
| COc1cccc(-c2cc(C(=O)Nc3ccc(-c4ccc(OC5CCN(C)CC5)cc4)cc3N)ccc2OC)c1 | MCF7 | 2.25 µM |
| COc1cccc(-c2cc(C(=O)Nc3ccc(-c4ccc(OC5CCN(C)CC5)c(Cl)c4)cc3)ccc2OC)c1 | MCF7 | 1.48 µM |
| COc1ccc(C(=O)Nc2ccc(-c3ccc(OC4CCN(C)CC4)cc3)cc2)cc1-c1cccc(O)c1 | MCF7 | 1.08 µM |
| COc1cccc(-c2cc(C(=O)Nc3ccc(-c4ccc(OC5CCN(C)CC5)cc4)cc3OC)ccc2OC)c1 | MCF7 | 1.22 µM |
| CC(C)=CCc1cc(C(=O)Nc2ccc(-c3ccc(OC4CCN(C)CC4)cc3)cc2)ccc1O | MCF7 | 1.85 µM |
| CN1CCC(Oc2ccc(-c3ccc(NC(=O)c4ccc(Br)cc4)cc3)cc2)CC1 | MCF7 | 0.52 µM |

---

Catalogue of IC50 readings, one per entry.
# Test system: MCF7
# TEST_DESCRIPTION: Antiproliferative activity against human MCF7 cells after 72 hrs by MTS/PMS assay
# Type: functional, cell-based
# CONDITIONS_USED: MCF7, 72 h
REPORTED_METRIC: IC50

| CHEMICAL_SMILES | ASSAYED_SYSTEM | MEASUREMENT |
| --- | --- | --- |
| CN1CCC(Oc2ccc(-c3ccc(NC(=O)c4cccc(-c5ccccc5)c4)cc3)cc2)CC1 | MCF7 | 1.15 µM |
| COc1cccc(-c2cc(C(=O)Nc3ccc(-c4ccc(OC5CCN(C)CC5)cc4)c(Cl)c3)ccc2OC)c1 | MCF7 | 3.44 µM |
| COc1cccc(-c2cc(C(=O)Nc3ccc(-c4ccc(OC5CCN(C)CC5)cc4)cc3)ccc2OC)c1 | MCF7 | 0.71 µM |
| CN1CCC(Oc2ccc(-c3ccc(NC(=O)c4cccc5ccccc45)cc3)cc2)CC1 | MCF7 | 0.49 µM |
| COc1cccc(-c2cc(C(=O)Nc3ccc(-c4ccc(OC5CCN(C)CC5)cc4Cl)cc3)ccc2OC)c1 | MCF7 | 1.48 µM |
| COc1ccc(C(=O)Nc2ccc(-c3ccc(OC4CCN(C)CC4)cc3)cc2)cc1-c1cccc(Cl)c1 | MCF7 | 0.32 µM |
| Cc1cc(C(=O)Nc2ccc(-c3ccc(OC4CCN(C)CC4)cc3)cc2)ccc1Cl | MCF7 | 1.03 µM |
| COc1cccc(-c2cc(C(=O)Nc3ccc(-c4ccc(OC5CCN(C)CC5)cc4)cc3C)ccc2OC)c1 | MCF7 | 1.43 µM |
| CN1CCC(Oc2ccc(-c3ccc(NC(=O)c4ccc(I)cc4)cc3)cc2)CC1 | MCF7 | 0.58 µM |
| COc1cccc(-c2cc(C(=O)Nc3ccc(-c4ccc(OC5CCN(C)CC5)c([N+](=O)[O-])c4)cc3)ccc2OC)c1 | MCF7 | 1.23 µM |
| COc1cccc(-c2cc(C(=O)Nc3ccc(-c4ccc(OC5CCN(C)CC5)cc4)cc3[N+](=O)[O-])ccc2OC)c1 | MCF7 | 1.15 µM |
| COc1cccc(-c2cc(C(=O)Nc3ccc(-c4ccc(OC5CCN(C)CC5)c(OC)c4)cc3)ccc2OC)c1 | MCF7 | 1.32 µM |
| COc1ccc(C(=O)Nc2ccc(-c3ccc(OC4CCN(C)CC4)cc3)cc2)cc1-c1ccc(O)cc1 | MCF7 | 0.5 µM |
| CN1CCC(Oc2ccc(-c3ccc(NC(=O)c4cccc(Cl)c4)cc3)cc2)CC1 | MCF7 | 2.83 µM |
| COc1cccc(-c2cc(C(=O)Nc3ccc(-c4ccc(OC5CCN(C)CC5)cc4[N+](=O)[O-])cc3)ccc2OC)c1 | MCF7 | 1.3 µM |
| COc1ccc(C(=O)Nc2ccc(-c3ccc(OC4CCN(C)CC4)cc3)cc2)cc1-c1ccc(Cl)cc1 | MCF7 | 0.82 µM |
| CN1CCC(Oc2ccc(-c3ccc(NC(=O)c4ccc(C(C)(C)C)cc4)cc3)cc2)CC1 | MCF7 | 1.08 µM |
| COc1cccc(-c2cc(C(=O)Nc3ccc(-c4ccc(OC5CCN(C)CC5)cc4)cn3)ccc2OC)c1 | MCF7 | 1.15 µM |

---

# ASSAYED_SYSTEM: Heat shock protein HSP90 (Homo sapiens) (UniProt P07900+P08238)
# TEST_DESCRIPTION: Inhibition of HSP90 in human MCF7 cells assessed as induction of Akt protein degradation at 0.5 to 5 times antiproliferative IC50 level after 24 hrs by Western blotting method
# Assay type: cell-based
The source made the active and inactive calls. The calls are words filed in the database; no cut-off is given here.
Possible outcomes: yes = active, no = inactive

| CHEMICAL_SMILES | ASSIGNED_CATEGORY |
| --- | --- |
| CN1CCC(Oc2ccc(-c3ccc(NC(=O)c4ccc(Cl)cc4)cc3)cc2)CC1 | no |
| CN1CCC(Oc2ccc(-c3ccc(NC(=O)c4cccc(-c5ccccc5)c4)cc3)cc2)CC1 | yes |
| CN1CCC(Oc2ccc(-c3ccc(NC(=O)c4ccc(I)cc4)cc3)cc2)CC1 | no |
| CN1CCC(Oc2ccc(-c3ccc(NC(=O)c4cc5ccccc5[nH]4)cc3)cc2)CC1 | yes |
| CN1CCC(Oc2ccc(-c3ccc(NC(=O)c4cccc5ccccc45)cc3)cc2)CC1 | yes |

---

# ASSAYED_SYSTEM: Heat shock protein HSP90 (Homo sapiens) (UniProt P07900+P08238)
# TEST_DESCRIPTION: Inhibition of HSP90 in human MCF7 cells assessed as induction of Akt protein degradation at 0.5 to 5 times antiproliferative IC50 level after 24 hrs by Western blotting method
# Type: cell-based
Activity calls are given as the source filed them. No cut-off for these calls is given here.
REPORTED_METRIC: inhibition

| CHEMICAL_SMILES | ASSAYED_SYSTEM | MEASUREMENT |
| --- | --- | --- |
| CN1CCC(Oc2ccc(-c3ccc(NC(=O)c4ccc5ccccc5c4)cc3)cc2)CC1 | Heat shock protein HSP90 (Homo sapiens) (UniProt P07900+P08238) | Active |
| COc1ccc(C(=O)Nc2ccc(-c3ccc(OC4CCN(C)CC4)cc3)cc2)cc1 | Heat shock protein HSP90 (Homo sapiens) (UniProt P07900+P08238) | Active |

---

# Test system: MCF7
# TEST_DESCRIPTION: Antiproliferative activity against human MCF7 cells after 72 hrs by MTS/PMS assay
# Format: functional, cell-based
# CONDITIONS_USED: MCF7, 72 h
Grouping rule (IC50): bucket A = under 1000 nM, bucket B = from 1000 nM up to 2000 nM, bucket C = 2000 nM and over

| CHEMICAL_SMILES | ASSIGNED_CATEGORY |
| --- | --- |
| COc1cccc(-c2cc(C(=O)Nc3ccc(-c4ccc(OC5CCN(C)CC5)cn4)cc3)ccc2OC)c1 | bucket B |
| COc1cccc(-c2cc(C(=O)Nc3ccc(-c4ccc(OC5CCN(C)CC5)c(N)c4)cc3)ccc2OC)c1 | bucket C |
| COc1cccc(C(=O)Nc2ccc(-c3ccc(OC4CCN(C)CC4)cc3)cc2)c1 | bucket C |
| COc1cccc(-c2cc(C(=O)Nc3ccc(-c4ccc(OC5CCN(C)CC5)cc4NC(C)=O)cc3)ccc2OC)c1 | bucket B |
| CN1CCC(Oc2ccc(-c3ccc(NC(=O)c4cc5ccccc5[nH]4)cc3)cc2)CC1 | bucket A |
| COc1ccc(C(=O)Nc2ccc(-c3ccc(OC4CCN(C)CC4)cc3)cc2)cc1-c1cccc(OC(C)=O)c1 | bucket A |
| CN1CCC(Oc2ccc(-c3ccc(NC(=O)c4ccc(-c5ccccc5)cc4)cc3)cc2)CC1 | bucket C |
| COc1ccc(C(=O)Nc2ccc(-c3ccc(OC4CCN(C)CC4)cc3)cc2)cc1-c1cccc([N+](=O)[O-])c1 | bucket B |
| CN1CCC(Oc2ccc(-c3ccc(NC(=O)c4ccc5ccccc5c4)cc3)cc2)CC1 | bucket A |
| COc1cccc(-c2cc(C(=O)Nc3ccc(-c4ccc(OC5CCN(C)CC5)cc4N)cc3)ccc2OC)c1 | bucket B |
| COc1ccc(C(=O)Nc2ccc(-c3ccc(OC4CCN(C)CC4)cc3)cc2)cc1 | bucket A |
| CC(=O)Oc1ccc(C(=O)Nc2ccc(-c3ccc(OC4CCN(C)CC4)cc3)cc2)cc1CC=C(C)C | bucket B |
| COc1cccc(-c2cc(C(=O)Nc3ccc(-c4ccc(OC5CCN(C)CC5)cc4)c(N)c3)ccc2OC)c1 | bucket C |
| CN1CCC(Oc2ccc(-c3ccc(NC(=O)c4ccccc4)cc3)cc2)CC1 | bucket C |
| CN1CCC(Oc2ccc(-c3ccc(NC(=O)c4ccc5ncccc5c4)cc3)cc2)CC1 | bucket C |
| CN1CCC(Oc2ccc(-c3ccc(NC(=O)c4ccc(Cl)cc4)cc3)cc2)CC1 | bucket A |
| Cc1ccc(C(=O)Nc2ccc(-c3ccc(OC4CCN(C)CC4)cc3)cc2)cc1Br | bucket C |
